Here, each record is paired with measured ratio of amounts bound (vs GLS3000) data.
Biological target: CD3ε homodimer protein (human, UniProt P07766 23-126, limits assumed)
Sequence (P07766 23-126 limits assumed): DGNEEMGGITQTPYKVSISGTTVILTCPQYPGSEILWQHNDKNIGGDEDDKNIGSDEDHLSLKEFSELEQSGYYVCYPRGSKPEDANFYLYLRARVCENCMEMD
Assay: SPR, immobilized CD3ε homodimer;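 further: biacore T200 surface plasmon resonance at 25 °C, antibody variants flowed as analytes over amine-coupled CD3ε homodimer on a CM4 chip, variant binding amount divided by that of GLS3000 antibody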

Answered examples (3):
-- ask Report ratio of amounts bound (vs GLS3000) for GLS3000 G89V (antibody, name in Kabat numbering, V domains shown, one-arm format as m2) VH: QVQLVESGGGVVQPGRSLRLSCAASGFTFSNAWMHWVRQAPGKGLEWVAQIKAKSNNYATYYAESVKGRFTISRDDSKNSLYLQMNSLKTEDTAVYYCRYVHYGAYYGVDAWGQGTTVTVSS VL: DIVMTQSPLSLPVTPGEPASISCRSSQSLVHSNRNTYLHWYQQKPGQAPRLLIYKVSNRFSGVPDRFSGSGSGTDFTLKISRVEAEDVGVYYCVQGTQVPYTFGQGTKLEIK please.
-- reply 1.63

-- ask Report ratio of amounts bound (vs GLS3000) for GLS3000 N30S (antibody, name in Kabat numbering, V domains shown, one-arm format as m2) VH: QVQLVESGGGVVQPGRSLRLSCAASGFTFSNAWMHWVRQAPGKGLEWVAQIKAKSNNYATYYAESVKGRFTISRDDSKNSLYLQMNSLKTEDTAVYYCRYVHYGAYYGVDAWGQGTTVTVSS VL: DIVMTQSPLSLPVTPGEPASISCRSSQSLVHSNRSTYLHWYQQKPGQAPRLLIYKVSNRFSGVPDRFSGSGSGTDFTLKISRVEAEDVGVYYCGQGTQVPYTFGQGTKLEIK please.
-- reply 0.29

-- ask Report ratio of amounts bound (vs GLS3000) for GLS3000 N53Y (antibody, name in Kabat numbering, V domains shown, one-arm format as m2) VH: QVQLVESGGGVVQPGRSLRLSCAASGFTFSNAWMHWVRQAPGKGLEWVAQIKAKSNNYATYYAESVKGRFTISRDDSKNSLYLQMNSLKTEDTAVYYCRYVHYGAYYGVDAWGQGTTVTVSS VL: DIVMTQSPLSLPVTPGEPASISCRSSQSLVHSNRNTYLHWYQQKPGQAPRLLIYKVSYRFSGVPDRFSGSGSGTDFTLKISRVEAEDVGVYYCGQGTQVPYTFGQGTKLEIK please.
-- reply 0.67

Continuing:
-- ask Report ratio of amounts bound (vs GLS3000) for GLS3000 T31E (antibody, name in Kabat numbering, V domains shown, one-arm format as m2) VH: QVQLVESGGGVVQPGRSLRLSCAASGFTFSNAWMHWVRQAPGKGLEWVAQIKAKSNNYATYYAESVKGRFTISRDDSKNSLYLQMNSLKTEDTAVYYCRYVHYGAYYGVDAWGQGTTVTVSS VL: DIVMTQSPLSLPVTPGEPASISCRSSQSLVHSNRNEYLHWYQQKPGQAPRLLIYKVSNRFSGVPDRFSGSGSGTDFTLKISRVEAEDVGVYYCGQGTQVPYTFGQGTKLEIK please.
-- reply 0.49

-- ask Report ratio of amounts bound (vs GLS3000) for GLS3000 L27bP (antibody, name in Kabat numbering, V domains shown, one-arm format as m2) VH: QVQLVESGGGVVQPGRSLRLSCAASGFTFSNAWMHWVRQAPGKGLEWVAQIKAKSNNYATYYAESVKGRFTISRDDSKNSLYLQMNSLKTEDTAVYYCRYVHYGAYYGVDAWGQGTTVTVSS VL: DIVMTQSPLSLPVTPGEPASISCRSSQSPVHSNRNTYLHWYQQKPGQAPRLLIYKVSNRFSGVPDRFSGSGSGTDFTLKISRVEAEDVGVYYCGQGTQVPYTFGQGTKLEIK please.
-- reply 0.91
